Ref: ChEMBL document CHEMBL1142603

Tested on: Leishmania donovani
Test: Antileishmanial activity against Leishmania donovani after 72 hrs by alamar blue assay
Format: functional, organism-based
# note: boundary value 4 µg/mL maps to N; IC50 below it maps to Y

MOLECULE | GROUP_LABEL
O=C1CC[C@H]2C[C@]34CN5CCCC/C=C\CC[C@@]6(C=C(c7nccc8c7[nH]c7ccccc78)[C@@H]3CC5)O[C@H](CC1)N2[C@H]46 | N
N=C(N)c1ccc(OCCCCCOc2ccc(C(=N)N)cc2)cc1 | Y
O[C@]12C=C(c3nccc4c3[nH]c3ccccc34)[C@@H]3CCN(CCCC/C=C\CC1)C[C@@]31C[C@@H]3/C=C\CCCCN3[C@H]12 | Y
O=C1CCCN2[C@@H](CC1)C[C@]13CN4CCCC/C=C\CC[C@](O)(C=C(c5nccc6c5[nH]c5ccccc56)C1CC4)[C@H]23 (stereo partly specified) | Y
Oc1cccc2c1[nH]c1c(C3=C[C@@]4(O)CC/C=C\CCCCN5CC[C@@H]3[C@]3(CC6/C=C\CCCCN6[C@H]34)C5)nccc12 (stereo partly specified) | N

input: Below 4 µg/mL on IC50? Entry C1=C(c2[nH]ccc3c4ccccc4nc2-3)[C@@H]2CCN3CCCC/C=C\CC[C@]14O[C@@H]1CCC/C=C\[C@H]5C[C@@]2(C3)[C@H]4N51
output: N

input: Dear colleague, could you confirm whether IC50 of C[C@@H]1[C@H](O)[C@@H](C)/C=C/C=C/C=C/C=C/C=C/C=C/C=C/[C@H](O[C@@H]2O[C@H](C)[C@@H](O)[C@H](N)[C@@H]2O)C[C@@H]2O[C@](O)(C[C@@H](O)C[C@@H](O)[C@H](O)CC[C@@H](O)C[C@@H](O)CC(=O)O[C@H]1C)C[C@H](O)[C@H]2C(=O)O falls below 4 µg/mL? Thanks.
output: Y

input: Hello, is IC50 of the following molecule strictly smaller than 4 µg/mL? C1=C(c2nccc3c2[nH]c2ccccc23)[C@@H]2CCN3CCCC/C=C\CC[C@]14O[C@@]15/C=C\CCCCN1[C@@H]4[C@]2(C3)C5
output: N

input: In the record for O=C1CCCN2[C@@H](CC1)C[C@]13CN4CCCC/C=C\CC[C@](O)(C=C(c5nccc6c5[nH]c5ccc(O)cc56)[C@@H]1CC4)[C@H]23 , is IC50 less than 4 µg/mL?
output: Y

input: Decide: IC50 of O=C1CCCN2[C@@H](CC1)C[C@]13CN4CCCC/C=C\CC[C@](O)(C=C(c5nccc6c5[nH]c5c(O)cccc56)C1CC4)[C@H]23 (stereo partly specified) strictly below 4 µg/mL?
output: N

input: Bench note: check whether Oc1ccc2[nH]c3c(C4=C[C@@]5(O)CC/C=C\CCCCN6CC[C@@H]4[C@]4(C[C@@H]7/C=C\CCCCN7[C@H]45)C6)nccc3c2c1 shows IC50 below 4 µg/mL
output: Y
